Cited source for all entries: patent US9783537B2

Assignment: determine reported log10 of GI50 for the given compounds.
- System: MOLT-4
- Experimental protocol: SRB 48 h growth assay, Leukemia MOLT-4
- Format: cell-based, human
- Measurement conditions: Homo sapiens, MOLT-4, Leukemia, read-out: Log10 GI50 (converted)
Units before log transform: nM; reported quantity: GI50; transform: log10.

## Task Answer with the recorded log10 of GI50 for the compound listed here: C#Cc1ccc(-n2c(/C=C/c3ccc(O)cc3)nc3ncccc3c2=O)cc1
## Result 3.87

## Task // Input: C#Cc1ccc(-n2c(/C=C/c3ccc(Cl)c(F)c3)nc3ncccc3c2=O)cc1 . Output its log10 of GI50 only.
## Result 2.74

## Task Determine its reported log10 of GI50: C#Cc1ccc(-n2c(/C=C/c3ccc(C(F)(F)F)cc3)nc3ncccc3c2=O)cc1
## Result 3.48

## Task Find the measured log10 of GI50 of C#Cc1ccc(-n2c(/C=C/c3ccc4ccccc4c3)nc3ncccc3c2=O)cc1 and report it.
## Result 3.30

## Task Give the value of log10 of GI50 reported for the following: C#Cc1ccc(-n2c(/C=C/c3ccc4ccccc4n3)nc3ncccc3c2=O)cc1
## Result 2.66
